Catalogue of melting point readings, one per entry.

Worked examples, 4 molecules total:
>>> data_value("CC(C(=O)n1c(=O)oc2ccccc21)C(O)CCCl (stereo not given)")
"116 to 117 °C"
>>> data_value("Cc1cc(C(C)(C)O)ccc1-c1ccccc1")
"60 to 64 °C"
>>> data_value("O=C1c2ccc(OCCO)cc2C(=O)c2cc(-c3nnn[nH]3)ccc21")
"260 to 262 °C"
>>> data_value("CCOC(=O)C[C@H]1O[C@H](c2ccc(OCC)cc2OC)c2cc(Cl)ccc2N(CC(C)(C)C)C1=O (relative stereo)")
"164 to 166 °C"

We now examine a further molecule.
QUERY: Supply measured melting point of COc1cc(CN2CCN(c3ccc(C(=O)NC4CC4)cc3F)CC2)cc2c1OC(C)C(=O)N2 (stereo not given) in your reply.
RESULT: 233 °C

* * *

Catalogue of melting point readings, one per entry.

>>> data_value("CC(=O)Nc1cccnc1Cl")
"81 to 83 °C"
>>> data_value("CS(=O)(=O)c1ccc(C2=C(Br)CCC2)cc1")
"103 to 104 °C"
>>> data_value("COc1cc(CCCO)c(Br)cc1OCc1ccc(Cl)cc1Cl")
"102 to 103 °C"

QUERY: Supply measured melting point of CSc1ncnc2c(C3OC(CO)C(O)C3O)csc12 (configuration not stated) in your reply.
RESULT: 226 to 228 °C

QUERY: Supply measured melting point of CN(C)C=CC(=O)C1CC1 in your reply.
RESULT: 55 °C

QUERY: Supply measured melting point of COc1ccc2c(c1)C(=NO)c1c-2c(O)nc2ccccc12 in your reply.
RESULT: 320 to 321 °C

QUERY: Supply measured melting point of Oc1cc(OCC(O)COc2ccccc2)ccc1C(=S)c1ccc(-c2ccccc2)cc1 (configuration not stated) in your reply.
RESULT: 101 to 102 °C

QUERY: Supply measured melting point of COc1nc(O)cc(CCl)n1 in your reply.
RESULT: 154 to 155 °C

QUERY: Supply measured melting point of CC(C)(C)OC(=O)NCc1ccc(-c2ccc(O)c(Br)c2)cc1 in your reply.
RESULT: 113 to 117 °C

QUERY: Supply measured melting point of O=P(O)(O)Cc1cc(Cl)c(Oc2ccc(O)c(Cc3ccc(F)cc3)c2)c(Cl)c1 in your reply.
RESULT: 207 to 210 °C

QUERY: Supply measured melting point of CCOC(=O)C1=C(C)NC(C)=C(C(=O)OC)C1c1ccccc1Br (configuration not stated) in your reply.
RESULT: 134 to 136 °C

QUERY: Supply measured melting point of Brc1ccc(-c2cccs2)s1 in your reply.
RESULT: 55 to 56 °C

* * *

endpoint label: melting point

Worked examples, 5 compounds total:
>>> data_value("O=C1C(=O)c2ccccc2C2=C1SCC1(CCN(C(=O)c3ccc(-n4cccn4)cc3)CC1)O2")
"299 to 300 °C"
>>> data_value("c1cc(C2=NOC(C3CC3)C2)ccn1 (centres undefined)")
"102 to 108 °C"
>>> data_value("CC(Oc1cccc(OCc2ccc3ccc(Br)cc3n2)c1)C(=O)O (centres undefined)")
"178 °C"
>>> data_value("CCN(CC)C(=O)Oc1cc(-c2cccc(C(F)(F)F)c2)nc2ccccc12")
"96 °C"
>>> data_value("CCOC(=O)c1cn(C)c2cc(CC)ccc2c1=O")
"92 to 94 °C"

QUERY: Supply measured melting point of CCC(=CC(CNC(=O)c1sc(C)nc1C)=NO)C(C)[N+](=O)[O-] (centres undefined) in your reply.
RESULT: 158 to 159 °C

QUERY: Supply measured melting point of CS(=O)(=O)c1ccc(-c2cnn(-c3ccc(F)cc3)c(=O)c2COc2cccc(F)c2)cc1 in your reply.
RESULT: 142 to 144 °C

QUERY: Supply measured melting point of CC(C(=O)NCc1ccc(C(C)(C)C)cc1)c1ccc(NS(C)(=O)=O)c(C(=O)NCc2ccccc2)c1 (centres undefined) in your reply.
RESULT: 79 to 81 °C

QUERY: Supply measured melting point of OCCOc1ccc2c(c1)oc1cc(Cl)ccc12 in your reply.
RESULT: 118 to 120 °C
